Every entry's value here was drawn from patent US20150273027A1.

- targetDesc: rFVIIa (Homo sapiens)
- Construct: made in house
- assayProcedure: Isothermal titration calorimetry (iTC200) binding to rFVIIa
- particulars: binding buffer, 37° C.
reportedMetric: Kd (µM)

[[record]]
molecule = "N=C(N)c1ccc2[nH]c(-c3cc(CC(=O)N[C@@H](CC(=O)O)C(=O)O)cc(-c4cc(S(N)(=O)=O)ccc4O)c3O)nc2c1 [Formula I]"
targetdesc = "rFVIIa (Homo sapiens)"
unitdescriptor = "µM"
testresult = 0.296


====

- targetDesc: V158D/E296V/M298Q-FVIIa (Homo sapiens, UniProt P08709, E356V/M358Q/V218D)
- Construct: made in house
- assayProcedure: Isothermal titration calorimetry (iTC200) binding to V158D/E296V/M298Q-FVIIa
- particulars: pH 5.5, 20° C.
reportedMetric: Kd (nM)

[[record]]
molecule = "N=C(N)c1ccc2[nH]c(-c3cc(CC(=O)N[C@@H](CC(=O)O)C(=O)O)cc(-c4cc(S(N)(=O)=O)ccc4O)c3O)nc2c1"
testresult = 77

